Origin of measurements: patent US9328138B2

target: HCV genotype 1b (BK) NS3 modified enzyme with a R155K mutation (Hepatitis C virus genotype 1b, UniProt P26663, R1181K); construct: HCV genotype 1b (BK) NS3 modified enzyme; assay: HCV NS3 protease time-resolved fluorescence (TRF) assay, genotype 1b R155K; assay type: biochemical; details: Ki 1b R155K, second of two values printed in the cell (not explained)
Counter-ions that a name gives are not always drawn.
Measurement Name: log10 of Ki (log10 of the value in nM)

Molecule	Observed
C=C[C@@H]1C[C@]1(NC(=O)[C@@H]1C[C@@H]2CN1C(=O)[C@H](C1CCCCC1)NC(=O)O[C@@H]1C[C@H]1CCCCCc1c(nc3ccccc3c1OC1CCN(C(=O)OC(C)(C)C)CC1)O2)C(=O)NS(=O)(=O)C1(C)CC1 [Example 235]	0.64
C=C[C@@H]1C[C@]1(NC(=O)[C@@H]1C[C@@H]2CN1C(=O)[C@H](C1(C)CCCCC1)NC(=O)O[C@@H]1C[C@H]1CCCCCc1c(nc3ccccc3c1OC1CCN(C)CC1)O2)C(=O)NS(=O)(=O)C1(C)CC1 [Example 232]	-1.40
C=C[C@@H]1C[C@]1(NC(=O)[C@@H]1C[C@@H]2CN1C(=O)[C@H](C1(C)CCCCC1)NC(=O)O[C@@H]1C[C@H]1CCCCCc1c(nc3ccccc3c1OC1CCNCC1)O2)C(=O)NS(=O)(=O)C1(C)CC1 [Example 268]	-1.47
C=C[C@@H]1C[C@]1(NC(=O)[C@@H]1C[C@@H]2CN1C(=O)[C@H](C1(C)CCCCC1)NC(=O)O[C@@H]1C[C@H]1CCCCCc1c(nc3ccccc3c1OC1CC3CCC(C1)N3C)O2)C(=O)NS(=O)(=O)C1(C)CC1 (stereo partly shown) [Example 263]	-1.96
C=C[C@@H]1C[C@]1(NC(=O)[C@@H]1C[C@@H]2CN1C(=O)[C@H](C1CCCCC1)NC(=O)O[C@@H]1C[C@H]1CCCCCc1c(nc3ccccc3c1OCCCNC1CCC1)O2)C(=O)NS(=O)(=O)C1(C)CC1 [Example 242, formate]	-1.14
C=C[C@@H]1C[C@]1(NC(=O)[C@@H]1C[C@@H]2CN1C(=O)[C@H](C1CCCCC1)NC(=O)O[C@@H]1C[C@H]1CCCCCc1c(nc3ccccc3c1OCCCN1CCOCC1)O2)C(=O)NS(=O)(=O)C1(C)CC1 [Example 240, formate]	-0.55
C=C[C@@H]1C[C@]1(NC(=O)[C@@H]1C[C@@H]2CN1C(=O)[C@H](C(C)(C)C)NC(=O)O[C@@H]1C[C@H]1CCCCCc1c(nc3ccccc3c1OC1CC3CCC(C1)N3CCOC)O2)C(=O)NS(=O)(=O)C1(C)CC1 (single isomer, unassigned) [Example 276]	-1.72
C=C[C@@H]1CC1(NC(=O)[C@@H]1C[C@@H]2CN1C(=O)[C@H](C(C)(C)C)NC(=O)O[C@@H]1C[C@H]1CCCCCc1c(nc3ccccc3c1OC1C3CNCC1COC3)O2)C(=O)NS(=O)(=O)C1(C)CC1 (single isomer, unassigned) [Example 258, trifluoroacetate]	-1.10
C=C[C@@H]1C[C@]1(NC(=O)[C@@H]1C[C@@H]2CN1C(=O)[C@H](C1CCCCC1)NC(=O)O[C@@H]1C[C@H]1CCCCCc1c(nc3ccccc3c1OCCCN1CC(F)(F)C1)O2)C(=O)NS(=O)(=O)C1(C)CC1 [Example 249]	-0.30
C=C[C@@H]1C[C@]1(NC(=O)[C@@H]1C[C@@H]2CN1C(=O)[C@H](C(C)(C)C)NC(=O)O[C@@H]1C[C@H]1CCCCCc1c(nc3ccccc3c1OC1C3COCC1CN(CCOC)C3)O2)C(=O)NS(=O)(=O)C1(C)CC1 (stereo partly shown) [Example 261]	-0.81
C=C[C@@H]1CC1(NC(=O)[C@@H]1C[C@@H]2CN1C(=O)[C@H](C(C)(C)C)NC(=O)O[C@@H]1C[C@H]1CCCCCc1c(nc3ccccc3c1OC1C3CNCC1COC3)O2)C(=O)NS(=O)(=O)C1(C)CC1 (single isomer, unassigned) [Example 259, trifluoroacetate]	-0.46
C=C[C@@H]1C[C@]1(NC(=O)[C@@H]1C[C@@H]2CN1C(=O)[C@H](C(C)(C)C)NC(=O)O[C@@H]1C[C@H]1CCCCCc1c(nc3ccccc3c1OC1C3COCC1CN(CC1CC1)C3)O2)C(=O)NS(=O)(=O)C1(C)CC1 (stereo partly shown) [Example 256, formate]	-0.91
C=C[C@@H]1C[C@]1(NC(=O)[C@@H]1C[C@@H]2CN1C(=O)[C@H](C1(C)CCCCC1)NC(=O)O[C@@H]1C[C@H]1CCCCCc1c(nc3ccccc3c1OC1CCN(C(=O)OC(C)(C)C)CC1)O2)C(=O)NS(=O)(=O)C1(C)CC1 [Example 267]	0.66
C=C[C@@H]1C[C@]1(NC(=O)[C@@H]1C[C@@H]2CN1C(=O)[C@H](C(C)(C)C)NC(=O)O[C@@H]1C[C@H]1CCCCCc1c(nc3ccccc3c1OC1C3COCC1CN(CC)C3)O2)C(=O)NS(=O)(=O)C1(C)CC1 (stereo partly shown) [Example 260]	-1.03
C=C[C@@H]1CC1(NC(=O)[C@@H]1C[C@@H]2CN1C(=O)[C@H](C(C)(C)C)NC(=O)O[C@@H]1C[C@H]1CCCCCc1c(nc3ccccc3c1OC1C3COCC1CN(CCOC)C3)O2)C(=O)NS(=O)(=O)C1(C)CC1 (stereo partly shown) [Example 257]	-0.64
C=C[C@@H]1C[C@]1(NC(=O)[C@@H]1C[C@@H]2CN1C(=O)[C@H](C(C)(C)C)NC(=O)O[C@@H]1C[C@H]1CCCCCc1c(nc3ccccc3c1OC1CC3CCC(C1)N3CC(F)(F)F)O2)C(=O)NS(=O)(=O)C1(C)CC1 (stereo partly shown) [Example 275]	0.06
